- Target under test: T1, TNFR1 (Homo sapiens, UniProt P19438)
- T1 chain: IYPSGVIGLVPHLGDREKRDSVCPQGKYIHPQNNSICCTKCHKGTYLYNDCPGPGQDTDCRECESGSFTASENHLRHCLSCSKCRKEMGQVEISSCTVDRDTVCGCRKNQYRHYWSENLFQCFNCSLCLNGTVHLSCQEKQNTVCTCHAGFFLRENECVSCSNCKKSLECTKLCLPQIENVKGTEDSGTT
- Test summary: yeast display SC50
Quantity measured: apparent Kd (screen) (nM)

Here's what some known entries look like.
INSERT INTO assay_data (binder, readout_value) VALUES
  ('A76L (designed binder) MTLQELLREEALRRAEAEAFRYALELLAEKFPEQKEYLLDLAEEIESQIRSLSGVDVEDVRKFLDKEWAWVKELLLEHPAELAEVEAARAARLAELRAEVEAKVAA', 0.49),
  ('R97M (designed binder) MTLQELLREEALRRAEAEAFRYALELLAEKFPEQKEYLLDLAEEIESQIRSLSGVDVEDVRKFLDKEWAWVKELLAEHPAELAEVEAARAARLAELMAEVEAKVAA', 0.539);

[a] E33V (designed binder) MTLQELLREEALRRAEAEAFRYALELLAEKFPVQKEYLLDLAEEIESQIRSLSGVDVEDVRKFLDKEWAWVKELLAEHPAELAEVEAARAARLAELRAEVEAKVAA
[b] V55A (designed binder) MTLQELLREEALRRAEAEAFRYALELLAEKFPEQKEYLLDLAEEIESQIRSLSGADVEDVRKFLDKEWAWVKELLAEHPAELAEVEAARAARLAELRAEVEAKVAA
Would you mind telling me which has the lower recorded apparent Kd (screen) between a and b ? Provide the label of your selected option as the answer.
a
(a: 0.718 nM, b: 1.16 nM)

Where do these numbers come from? They come from paper PMC12416549.
